Tested on: SK-MEL-5
Test: NCI tumour cell line growth inhibition, 48 h
Activity calls are given as the source filed them. Rule as the data show it: active = GI50 up to about 1.1 µM and inactive = higher.
Classes used: Y for active, N for inactive

• CC(C)(C)N(Cc1ccc2c(c1)OCO2)C(=O)/C=C\[S+]([O-])c1ccccc1 (stereo not drawn) = N
• Nc1cc2c(c3ccccc13)C(CCl)CN2C(=O)c1cc2cc(NC(=O)c3cc4ccccc4o3)ccc2[nH]1 (stereo not drawn) = Y
• COc1cc([N+](=O)[O-])c(OC)c2c(Nc3ccc(S(=O)(=O)O)c4cc(S(=O)(=O)O)cc(S(=O)(=O)O)c34)cc(C)nc12 = N
• NCc1nnn(Cc2ccccc2)c1N = N
• Cc1ccc(/C=C/C(=O)c2ccc([N+](=O)[O-])cc2)cc1 = N
• O=[N+]([O-])C(C(Cl)=C(Cl)Cl)=C(n1nnc2ccccc21)n1nnc2ccccc21 = N
• COc1cc(C2C3=C(COC3=O)OC(C)(C)Oc3cc4c(cc32)OCO4)cc(OC)c1OC (stereo not drawn) = Y
• C=C(c1ccccc1)[C@@]1(O)CCCC[C@H]1NC(c1ccccc1)c1ccccc1 = N

---

Tested on: SK-MEL-2
Experiment: NCI tumour cell line growth inhibition, 48 h
Active and inactive are the calls of the source. No stated cut-off is given here; in the data, active = GI50 up to about 1.1 µM and inactive = higher.
GI50 values, listed per item
Measurement Type: GI50

* COc1cccc2c1NC(=O)Cc1c-2[nH]c2ccccc12 | > 100 µM (inactive)
* COc1ccc2nc3ccc(OC)cc3c(SCCCl)c2c1 | 20.7 µM (inactive)
* O=[N+]([O-])C(C(Cl)=C(Cl)Cl)=C(n1nnc2ccccc21)n1nnc2ccccc21 | 42 µM (inactive)
* COC1(OC)CCC2(C)OC(c3ccccc3)C1O2 (stereo unspecified) | > 100 µM (inactive)
* CCOC(=O)C1=C(c2ccccc2)C12N(Cc1ccccc1)C(=O)C2(c1ccccc1)c1ccccc1 (stereo unspecified) | 24 µM (inactive)
* Clc1nc(Cl)c(CBr)c(Cl)n1 | 8.65 µM (inactive)
* COC(=O)C1=C(OC(=O)/C(=C/c2ccc(Cl)cc2)c2ccc(Cl)cc2)C(C(=O)OC)[C@]2(O)[C@@H](C(=O)OC)[C@H]1C[C@@H](c1ccccc1)[C@@H]2C(=O)OC (stereo partly specified) | > 100 µM (inactive)
* CN(C)NC(=S)Nc1ccccc1Br | > 100 µM (inactive)
* CCc1cccc(=O)c([O-])c1.CCc1cccc(=O)c([O-])c1.[Bi+3].[Cl-] | 12.7 µM (inactive)
* [O-][Cl+3]([O-])([O-])O.c1ccc(C2=NN2c2ccccc2)cc1 | > 100 µM (inactive)
* COc1cc(C2c3cc4c(cc3OC(NCCO)C2C)OCO4)cc(OC)c1OC (stereo unspecified) | 3.42 µM (inactive)
* COc1cccc(-c2nc(O)c3ccccc3n2)c1 | 39.5 µM (inactive)
* O=C(Nc1ccccc1C(=O)NCc1ccccc1)/C(=C/c1ccccc1)NC(=O)c1ccccc1 | > 100 µM (inactive)
* COc1ccccc1C1C2=C(COC2=O)Oc2cc3c(cc21)OCO3 (stereo unspecified) | 5.15 µM (inactive)
* COC(=O)C(=O)C(CC(=O)Nc1cc(Cl)ccc1Cl)C(=O)OC (stereo unspecified) | > 100 µM (inactive)
* CC(=O)CC1(CBr)Nc2ccc([N+](=O)[O-])cc2NC1=O (stereo unspecified) | > 100 µM (inactive)
* COc1cc(C(=O)OC2CC34CCNC35CC(OC5(OC)C2O)c2cc3c(cc24)OCO3)ccc1O (stereo unspecified) | > 100 µM (inactive)
* COc1ccccc1OCC(=N/NC(=O)c1ccncc1)/N=C/c1cccnc1 | > 100 µM (inactive)
* CCOC(=O)C(C)NC(=O)N(C)C12CC3CC(CC(C3)C1)C2 (stereo unspecified) | 169 µM (inactive)
* C=CCNC(=O)C(C)C1CCC2(C)C=CC(=O)C(C)=C2C1O (stereo unspecified) | > 100 µM (inactive)
* COc1ccc2nc(-c3ccc(O)cc3)sc2c1 | 43.4 µM (inactive)

---

Test system: HT-29
Test: NCI tumour cell line growth inhibition, 48 h
Calls of active or inactive are those of the source. No stated cut-off is given here; in the data, active = GI50 up to about 1.1 µM and inactive = higher.
Classes used: 1 = active, -1 = inactive

• CCN(CC)CCCNc1nncc2c(C)c3[nH]c4ccccc4c3cc12 = 1
• O=S1(=O)N2CN3CN(C2)CN1C3 = -1
• CC(C(=O)c1ccncc1)c1ccccn1 (stereo unspecified) = -1
• COc1ccccc1Cn1c2c(c3cc(O)ccc31)C(=O)c1ccccc1C2=O = -1
• Cc1cc(Cl)ccc1NC(=O)/C(Cc1nc2ccc(C(=O)c3ccccc3)cc2nc1O)=N/NC(=O)c1ccncc1 = -1
• CCOC(=O)c1c(Br)c(-c2ccc([N+](=O)[O-])cc2)c(Br)n1C = -1
• CC(=O)c1sc2n(C)c(=O)c3ccccc3[n+]2c1C = -1
• CSc1ccc2c(c1)c(CCN)c(C)n2Cc1ccccc1Cl = -1
• COc1ccc2c3c1O[C@H]1C(O)CCC4(O)[C@@H](C2)NCC[C@]314 (stereo partly specified) = -1
• Nc1nc(N)c2nc(CNc3ccc(C(=O)O)cc3)[nH]c2n1 = -1
• Cc1ccc(Oc2ccc(C)cc2[N+](=O)[O-])cc1 = -1

---

Test system: HCC 2998
Experiment: NCI tumour cell line growth inhibition, 48 h
Active and inactive are the calls of the source. Cut-off read from the data, not from the text of the source: active = GI50 up to about 1.1 µM and inactive = higher.
Classes used: T = active, F = inactive

• CCOc1ccccc1NC(=O)CC1SC(Nc2ccc([N+](=O)[O-])cc2)=NC1=O (stereo not drawn) = F
• Nc1cc2c(c3ccccc13)C(CCl)CN2C(=O)c1cc2cc(NC(=O)c3cc4ccccc4o3)ccc2[nH]1 (stereo not drawn) = T
• COc1ccc(-c2nc3ccccc3c(=S)n2OC(C)=O)cc1 = F
• CC1(C)[C@@H]2CC[C@@]1(C)[C@H](O)[C@@H]2SCc1ccccc1 = F
• CC(=O)OCc1c2ccccc2c(C)c2c1cc(F)c1ccccc12 = F
• COc1cc(/C=N\O)nc(-c2ccccn2)c1 = F
• COc1c(O)cc2ccnc3c2c1N(C)C=C3 = F
• COc1cc(C(=O)OC2CC34CCNC35CC(OC5(OC)C2O)c2cc3c(cc24)OCO3)ccc1O (stereo not drawn) = F
• Cc1c(C2=NN=C(/N=N/c3c(O)cccc3O)/C2=C/c2ccccc2)c(=O)n(-c2ccccc2)n1C = F
• Cc1ccc(/C=C2/N/C(=N\N=C/C(O)C(O)C(O)C(O)CO)NC2=O)cc1 (stereo not drawn) = F
• CC(NP(=O)(c1ccccc1)c1ccccc1)c1ccccc1 (stereo not drawn) = F
• COC(=N)c1ncn(Cc2ccccc2)c1N = F
• Cc1cc(Cl)ccc1NC(=O)/C(Cl)=C(/Cl)C(=O)O = F

---

Tested on: A549
Assay: NCI tumour cell line growth inhibition, 48 h
Active and inactive are the calls of the source. No stated cut-off is given here; in the data, active = GI50 up to about 1.1 µM and inactive = higher.
Measurement Type: GI50

- COC(=N)c1ncn(Cc2ccccc2)c1N: > 100 µM (inactive)
- CC(=O)Oc1cc(Cl)c(C)c2c1[C@H]1CC[C@]3(C)[C@@H](OC(C)=O)CC[C@H]3[C@@H]1CC2: > 100 µM (inactive)
- O=C(Nn1c(-c2ccccc2)nc2ccccc2c1=O)c1ccc(O)cc1: > 100 µM (inactive)
- FC(F)(Sc1ncc[nH]1)c1nc2ccccc2o1: > 100 µM (inactive)
- O=[N+]([O-])C(C(Cl)=C(Cl)Cl)=C(n1nnc2ccccc21)n1nnc2ccccc21: 48.5 µM (inactive)
- O=C1C(Cl)=C(OCCCl)C(=O)c2c(O)ccc(O)c21: 20 µM (inactive)
- COc1nc(N)c(NC(C)=O)c(=O)n1C: > 100 µM (inactive)
- C=CCOc1ccc(C2c3c(n[nH]c3O)CC(O)(OCC)C2C(=O)OCC)cc1OC (centres undefined): > 100 µM (inactive)
- Nn1c(=O)n(Cc2ccccc2)n(-c2ccccc2)c1=O: > 100 µM (inactive)

---

System: HCT-116
Test: NCI tumour cell line growth inhibition, 48 h
Activity calls are given as the source filed them. No stated cut-off is given here; in the data, active = GI50 up to about 1.1 µM and inactive = higher.
Measurement Type: GI50

- CN1CCc2c(sc3nc(Nc4ccccc4)n(N)c(=O)c23)C1: 72.3 µM (inactive)
- COC1(OC)CCC2(C)OC(c3ccccc3)C1O2 (stereo not given): > 100 µM (inactive)
- O=CC(=C(I)I)c1ccccc1: 0.855 µM (active)
- Cc1ccc(/C=C2/N/C(=N\N=C/C(O)C(O)C(O)C(O)CO)NC2=O)cc1 (stereo not given): > 100 µM (inactive)
- COC(=O)c1ccccc1C1CN=NC12Cc1c(C)cc(C)cc1C2=O (stereo not given): > 100 µM (inactive)

---

GI50 values, listed per item
Test system: SF-539
Assay: NCI tumour cell line growth inhibition, 48 h
The source made the active and inactive calls. Cut-off read from the data, not from the text of the source: active = GI50 up to about 1.1 µM and inactive = higher.
Measurement Type: GI50

• O=C1c2cccc3cccc(c23)C(=O)N1CCN(CCO)CCO = 23.5 µM (inactive)
• O=[N+]([O-])c1ccc(Nc2cccc3c4cc[nH]c(-c5ccccc5)c-4nc23)c([N+](=O)[O-])c1 = > 100 µM (inactive)
• C1=C2/CC[C@H](Sc3ccccc3)[C@H]2C2(CCCCC/1)OCCO2 = 40.4 µM (inactive)
• COc1ccc(CN2C(=O)C(Cc3cc(OC)c(OC)c(C)c3OC)NC(=O)/C2=C/c2cc(OC)c(OC)c(C)c2OC)cc1 (stereo not given) = 45.6 µM (inactive)
• CN1C(=N\S(=O)(=O)c2ccc(Cl)cc2)/C(=N/N=P(c2ccccc2)(c2ccccc2)c2ccccc2)c2ccccc21 = > 100 µM (inactive)

The measured values listed here are drawn from ChEMBL document CHEMBL1201862.
